- System: NCI-H3122
- Experimental Details: relative viability (nuclei count vs DMSO), 5 days (fraction); higher = more cells survive
- Experimental Conditions: first compound 0.08 µM
Listed next: entries and their corresponding relative viability.
Returns: the value as a bare number; no unit string appended.

Past entries and their recorded results:
O=c1[nH]c2ccccc2n1C1CCN(CCCC(c2ccc(F)cc2)c2ccc(F)cc2)CC1 [Pimozide] + COc1cc2c(Oc3ccc(NC(=O)C4(C(=O)Nc5ccc(F)cc5)CC4)cc3F)ccnc2cc1OCCCN1CCOCC1 [Foretinib] (partner 0.25 µM); 0.911
Cc1cnc(-c2cnc(NCCNc3ccc(C#N)cn3)nc2-c2ccc(Cl)cc2Cl)[nH]1 + CS(=O)(=O)N1CCN(Cc2cc3nc(-c4cccc5[nH]ncc45)nc(N4CCOCC4)c3s2)CC1 [Pictilisib] (partner 1 µM); 0.65
Cc1cnc(-c2cnc(NCCNc3ccc(C#N)cn3)nc2-c2ccc(Cl)cc2Cl)[nH]1 + C[C@]1(O)C[C@@H](c2nc(-c3ccc4ccc(-c5ccccc5)nc4c3)c3c(N)nccn32)C1 [Linsitinib] (partner 1 µM); 1.04

QUERY: Suppose we examine the compound O=c1[nH]c2ccccc2n1C1CCN(CCCC(c2ccc(F)cc2)c2ccc(F)cc2)CC1 [Pimozide] + Cc1cc(Nc2cc(N3CCN(C)CC3)nc(Sc3ccc(NC(=O)C4CC4)cc3)n2)n[nH]1 [Tozasertib] (partner 0.1 µM) ; what relative viability value has been reported?
RESULT: 0.397

---

// relative viability lookup, one value per entry
- Tested on: NCI-H322M
- Experimental Details: relative viability (nuclei count vs DMSO), 5 days (fraction); higher = more cells survive
- Experimental Conditions: first compound 0.08 µM
Just the number, please, no unit attached.

Cc1cnc(-c2cnc(NCCNc3ccc(C#N)cn3)nc2-c2ccc(Cl)cc2Cl)[nH]1 + O=C(CCCCCCC(=O)Nc1ccccc1)NO [Vorinostat] (partner 1 µM); 0.843
Cc1cnc(-c2cnc(NCCNc3ccc(C#N)cn3)nc2-c2ccc(Cl)cc2Cl)[nH]1 + CC(=O)c1c(C)c2cnc(Nc3ccc(N4CCNCC4)cn3)nc2n(C2CCCC2)c1=O [Palbociclib] (partner 0.5 µM); 0.467
Cc1cnc(-c2cnc(NCCNc3ccc(C#N)cn3)nc2-c2ccc(Cl)cc2Cl)[nH]1 + NC(=O)Nc1cc(-c2cccc(F)c2)sc1C(=O)N[C@H]1CCCNC1 [AZD7762] (partner 0.2 µM); 0.526
Cc1cnc(-c2cnc(NCCNc3ccc(C#N)cn3)nc2-c2ccc(Cl)cc2Cl)[nH]1 + Cc1nc(Nc2ncc(C(=O)Nc3c(C)cccc3Cl)s2)cc(N2CCN(CCO)CC2)n1 [Dasatinib] (partner 0.075 µM); 0.246
Cc1cnc(-c2cnc(NCCNc3ccc(C#N)cn3)nc2-c2ccc(Cl)cc2Cl)[nH]1 + Cc1nc(NC(=O)N2CCC[C@H]2C(N)=O)sc1-c1ccnc(C(C)(C)C(F)(F)F)c1 [Alpelisib] (partner 2 µM); 0.773
Cc1cnc(-c2cnc(NCCNc3ccc(C#N)cn3)nc2-c2ccc(Cl)cc2Cl)[nH]1 + COc1cc2c(Oc3ccc(NC(=O)C4(C(=O)Nc5ccc(F)cc5)CC4)cc3F)ccnc2cc1OCCCN1CCOCC1 [Foretinib] (partner 0.25 µM); 1.07
Cc1cnc(-c2cnc(NCCNc3ccc(C#N)cn3)nc2-c2ccc(Cl)cc2Cl)[nH]1 + COc1cccc2cc(-c3nc([C@H]4CC[C@H](C(=O)O)CC4)n4ncnc(N)c34)[nH]c12 [OSI-027] (partner 0.5 µM); 0.641

QUERY: Which relative viability value is on record for Cc1cnc(-c2cnc(NCCNc3ccc(C#N)cn3)nc2-c2ccc(Cl)cc2Cl)[nH]1 + C[C@@H](Oc1cc(-c2cnn(C3CCNCC3)c2)cnc1N)c1c(Cl)ccc(F)c1Cl [Crizotinib] (partner 1 µM) ?
RESULT: 0.925
